# run description: folding enthalpy; higher = less favourable; fluorescence melt of hairpins on a sequencing array, two-state fit
# condition label: sodium 0.088 M
Note to self: values exactly at -30 kcal/mol are 1. So folding enthalpy at or above -30 kcal/mol is 1, below is -1.

Please review the entries below; each comes with its answer.
INSERT INTO assay_data (sequence_string, class) VALUES
  ('GCATCCGAAAGGAGATGC ((((((....)))..)))', -1),
  ('TAGTTGAAAAACTA (((((....)))))', 1),
  ('GCTGCGGGAAACTGCGGC ((.((.(....).)).))', -1),
  ('GCGGACGAAAGTCCTCGC ((((((....)))..)))', 1),
  ('GATCATTGCCATGATC ((((((....))))))', -1);

Decide: is the reported value of folding enthalpy for GCTTTACGAAAGTAAGC (((.(((....)))))) equal to or greater than -30 kcal/mol? 1

Decide: is the reported value of folding enthalpy for GAGACCGAAAGGTCGCTC ((((((....)))..))) equal to or greater than -30 kcal/mol? 1

Decide: is the reported value of folding enthalpy for GCGAGTGTTCGC ((((....)))) equal to or greater than -30 kcal/mol? 1

Decide: is the reported value of folding enthalpy for GCAAGACGAAAGTCCTGC (((.(((....))).))) equal to or greater than -30 kcal/mol? 1
